- target.entity: Fatty-acid amide hydrolase 1 (Homo sapiens)
- test: Inhibition of human FAAH expressed in Escherichia coli at 1 mM
measured.metric: inhibition (%)
# output: bare number, implied unit %

Example entries and their recorded answers appear below.
In [3]: df
Out[3]:
                                   compound  measured_metric  experimental_value
0  C=CCCCC1(CCCC=C)CN([Si](C)(C)C(C)(C)C)C1=O       inhibition                25.2
1                    C=CCCCC1(CCCC=C)CNC1=O       inhibition                80.5
2        C=CCCC(=O)N1CC(CC=C)C1=O (racemic)       inhibition                96.5
3                   C=CCCC1CNC1=O (racemic)       inhibition                  48
4                    C=CCC1CNC1=O (racemic)       inhibition                56.6

Give its inhibition value. Item: C=CCCCC1CN(C(=O)CCC=C)C1=O (racemic)
101

Any idea what its inhibition is? The compound is C=CCCC(=O)N1CC(CCC=C)C1=O (racemic)
103

###

- target.entity: Fatty-acid amide hydrolase 1 (Homo sapiens) (UniProt O00519)
- Sequence (whole entry): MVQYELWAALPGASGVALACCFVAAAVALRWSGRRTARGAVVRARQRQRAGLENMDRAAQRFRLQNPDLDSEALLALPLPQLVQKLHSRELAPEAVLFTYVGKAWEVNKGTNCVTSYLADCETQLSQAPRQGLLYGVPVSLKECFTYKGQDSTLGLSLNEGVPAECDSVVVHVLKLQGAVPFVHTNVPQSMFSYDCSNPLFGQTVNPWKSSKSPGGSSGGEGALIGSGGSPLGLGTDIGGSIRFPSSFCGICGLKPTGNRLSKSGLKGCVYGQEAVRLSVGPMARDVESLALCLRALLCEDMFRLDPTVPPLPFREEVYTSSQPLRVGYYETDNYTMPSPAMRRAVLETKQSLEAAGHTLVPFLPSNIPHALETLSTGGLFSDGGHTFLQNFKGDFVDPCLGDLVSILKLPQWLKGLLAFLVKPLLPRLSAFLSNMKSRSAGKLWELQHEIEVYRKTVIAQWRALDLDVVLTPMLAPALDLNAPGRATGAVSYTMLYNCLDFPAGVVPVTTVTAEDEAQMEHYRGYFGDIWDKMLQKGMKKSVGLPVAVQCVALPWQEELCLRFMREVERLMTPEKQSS
- test: Inhibition of human FAAH expressed in Escherichia coli at 1 mM
measured.metric: inhibition
Provide the measurement as a number trailed by its unit.

# example entries with known answers
>>> df
                                   compound  experimental_value
0  C=CCCCC1CN([Si](C)(C)C(C)(C)C)C1=O (racemic)               76.9%
1                  C=CCCCC1CNC1=O (racemic)               80.9%
2  C=CCC1CN([Si](C)(C)C(C)(C)C)C1=O (racemic)               43.6%

Could you tell me which inhibition is on file for C=CCCC1CN([Si](C)(C)C(C)(C)C)C1=O (racemic) ?
49.5%

###

- target.entity: Monoglyceride lipase (Homo sapiens)
- test: Inhibition of human MGL expressed in Escherichia coli at 1 mM
Criterion: inhibition meeting or surpassing 60%. Met: yes. Not met: no.

Answered examples (5):
                                   molecule  cat
0                    C=CCC1CNC1=O (racemic)   no
1  C=CCC1CN([Si](C)(C)C(C)(C)C)C1=O (racemic)  yes
2                   C=CCCC1CNC1=O (racemic)   no
3                  C=CCCCC1CNC1=O (racemic)   no
4        C=CCCC(=O)N1CC(CC=C)C1=O (racemic)   no

Say whether `C=CCCCC1(CCCC=C)CNC1=O` shows inhibition of 60% or more.
no

Given C=CCCCC1CN(C(=O)CCC=C)C1=O (racemic) , state whether its inhibition is at least 60%.
yes

Could you tell me if the measured inhibition of C=CCCC1CN([Si](C)(C)C(C)(C)C)C1=O (racemic) reaches 60% or more?
yes

Quick check: does C=CCCCC1CN([Si](C)(C)C(C)(C)C)C1=O (racemic) have inhibition greater than or equal to 60%?
no

Decide: is the reported value of inhibition for C=CCCC(=O)N1CC(CCC=C)C1=O (racemic) equal to or greater than 60%?
no

Threshold query (inhibition >= 60%) on `C=CCCCC1(CCCC=C)CN([Si](C)(C)C(C)(C)C)C1=O`
no
